Reference source for all entries: ChEMBL document CHEMBL2412994

Molecular target: E3 ubiquitin-protein ligase XIAP (Homo sapiens)
Sequence (P98170 whole entry): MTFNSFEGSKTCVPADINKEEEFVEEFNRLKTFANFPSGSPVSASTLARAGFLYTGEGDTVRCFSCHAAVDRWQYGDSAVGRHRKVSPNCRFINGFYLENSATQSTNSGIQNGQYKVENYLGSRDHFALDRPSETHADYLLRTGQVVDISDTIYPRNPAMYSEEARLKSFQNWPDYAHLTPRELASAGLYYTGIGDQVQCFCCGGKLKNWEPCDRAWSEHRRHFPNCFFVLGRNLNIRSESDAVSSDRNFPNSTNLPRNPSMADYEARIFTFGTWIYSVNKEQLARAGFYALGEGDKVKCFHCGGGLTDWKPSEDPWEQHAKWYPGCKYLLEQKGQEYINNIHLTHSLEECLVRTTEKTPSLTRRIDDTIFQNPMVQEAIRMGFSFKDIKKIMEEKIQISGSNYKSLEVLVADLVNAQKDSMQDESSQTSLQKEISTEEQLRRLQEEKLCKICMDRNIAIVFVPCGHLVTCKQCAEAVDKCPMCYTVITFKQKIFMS
Assay: Binding affinity to XIAP BIR3-domain (unknown origin)
Square brackets hold non-standard residues; d marks the D form. Peptide text beside a SMILES is read from it. Phg = N[C@H](C(=O)O)c1ccccc1; NMeA = CN[C@@H](C)C(=O)O
Property label: Kd (µM)

| Molecule | Result unit | Kd |
| --- | --- | --- |
| CN[C@@H](C)C(=O)N[C@H](C(=O)N1CCC[C@H]1C(=O)N[C@@H](Cc1ccccc1)C(=O)N[C@@H](Cc1ccc(O)cc1)C(N)=O)C(C)C (H-[NMeA]VPFY-NH2) | µM | 0.04 |
| CC(C)[C@H](NC(=O)[C@H](C)N)C(=O)N1CCC[C@H]1C(=O)N[C@H](C(=O)N[C@@H](Cc1ccc(O)cc1)C(N)=O)c1ccccc1 (H-AVP[Phg]Y-NH2) | µM | 0.03 |
